Molecular target: mouse ADAMTS7 (Mus musculus, UniProt Q68SA9, E373Q)
Construct: Full-length mouse Adamts7 1-1857 (Uniprot Q68SA9, WT or E373Q catalytic mutant); expressed in transfected cells; host or cells: Human Coronary Artery Smooth Muscle Cells (HCA-SMC, Lonza), adenovirus 50 MOI
Sequence (Q68SA9 221-1657 E373Q): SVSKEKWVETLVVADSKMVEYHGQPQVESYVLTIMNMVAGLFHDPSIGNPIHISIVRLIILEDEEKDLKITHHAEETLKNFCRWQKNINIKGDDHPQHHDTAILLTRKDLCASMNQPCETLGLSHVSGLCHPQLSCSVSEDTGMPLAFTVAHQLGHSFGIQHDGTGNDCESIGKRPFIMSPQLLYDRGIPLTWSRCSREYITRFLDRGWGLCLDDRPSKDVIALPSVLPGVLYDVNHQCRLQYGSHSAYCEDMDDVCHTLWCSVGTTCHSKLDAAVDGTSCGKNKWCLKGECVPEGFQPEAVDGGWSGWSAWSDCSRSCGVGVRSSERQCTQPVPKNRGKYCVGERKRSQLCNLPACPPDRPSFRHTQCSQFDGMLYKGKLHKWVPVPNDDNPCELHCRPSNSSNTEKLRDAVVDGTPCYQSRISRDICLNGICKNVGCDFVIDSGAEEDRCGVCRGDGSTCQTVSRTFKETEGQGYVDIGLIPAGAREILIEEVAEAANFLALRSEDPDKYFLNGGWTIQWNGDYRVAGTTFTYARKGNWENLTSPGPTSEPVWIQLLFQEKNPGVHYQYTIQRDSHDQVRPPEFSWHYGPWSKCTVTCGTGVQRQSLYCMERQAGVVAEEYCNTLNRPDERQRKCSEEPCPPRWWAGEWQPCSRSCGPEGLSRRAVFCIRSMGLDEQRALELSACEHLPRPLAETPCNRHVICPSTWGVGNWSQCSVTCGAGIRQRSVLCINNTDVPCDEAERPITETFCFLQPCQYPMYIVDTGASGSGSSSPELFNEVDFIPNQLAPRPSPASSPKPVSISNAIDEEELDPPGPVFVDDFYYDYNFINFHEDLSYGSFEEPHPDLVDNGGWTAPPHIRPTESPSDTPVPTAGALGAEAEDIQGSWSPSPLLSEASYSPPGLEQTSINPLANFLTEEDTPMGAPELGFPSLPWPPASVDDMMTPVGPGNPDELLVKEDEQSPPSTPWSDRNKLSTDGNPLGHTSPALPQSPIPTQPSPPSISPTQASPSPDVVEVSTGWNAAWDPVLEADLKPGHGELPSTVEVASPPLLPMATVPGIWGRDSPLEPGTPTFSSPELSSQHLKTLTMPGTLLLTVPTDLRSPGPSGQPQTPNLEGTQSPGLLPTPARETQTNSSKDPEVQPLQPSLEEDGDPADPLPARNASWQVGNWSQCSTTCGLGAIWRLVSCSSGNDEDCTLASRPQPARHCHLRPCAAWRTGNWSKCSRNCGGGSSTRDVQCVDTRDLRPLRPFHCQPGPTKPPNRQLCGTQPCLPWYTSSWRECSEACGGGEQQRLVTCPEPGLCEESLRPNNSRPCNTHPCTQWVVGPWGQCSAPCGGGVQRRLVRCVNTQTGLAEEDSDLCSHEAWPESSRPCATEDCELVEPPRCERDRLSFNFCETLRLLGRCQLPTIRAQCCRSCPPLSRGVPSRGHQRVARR
Assay: TMT10 TAILS N-terminomics, SMC2 experiment (process replicates, trypsin/AspN digest)
Assay type: cell-based
Settings: SMC2_TAILS HC; log fold change, mEQ over Luc
reported_metric: logFC.mEQ.over.Luc

In the examples that follow, each entry is paired with its recorded logFC.mEQ.over.Luc.
substance	observed_value
CCL2_28 (INAPVTCCYNFTNR; listed as Homo sapiens)	−0.11
COL1A2_270 (VGNAGPAGPAGPR; listed as Homo sapiens)	−0.05
IGFBP7_101 (AAGGPGVSGVCVCKSR; listed as Homo sapiens)	−0.04
LOX_58 (LSLGSQYQPQR; listed as Homo sapiens)	−0.08
COL1A2_80 (QYDGKGVGLGPGPMGLMGPR; listed as Homo sapiens)	−0.33

(A) EFEMP1_125 (VAGPEMQTGR; listed as Homo sapiens)
(B) HSPG2_2333 (LAYPAGSTQPIR; listed as Homo sapiens)
Which is greater in logFC.mEQ.over.Luc, the first item A or the second item B ? API: response body contains the label of the selected item. B

(I) FBLN2_260 (LGPPAPVQAKAR; listed as Homo sapiens)
(II) EEF1G_23 (QYSGAQVR; listed as Homo sapiens)
(III) ECM1_108 (QEAVPLQK; listed as Homo sapiens)
(IV) COL18A1_1505 (LQPPVVQLHDSNPYPR; listed as Homo sapiens)
Arrange these 4 substances in increasing order of logFC.mEQ.over.Luc. Provide your answer as the labels ordered per the instruction. I, III, II, IV
(I: −0.44, III: −0.22, II: −0.12, IV: −0.01)

(P) IGFBP3_31 (SAGLGPVVR; listed as Homo sapiens)
(Q) ADAM9_74 (GKEHIIHLER; listed as Homo sapiens)
(R) ECM1_38 (FQEVGYAAPPSPPLSR; listed as Homo sapiens)
// sort entries: logFC.mEQ.over.Luc, high to low Response field: labels, in requested order. R, Q, P
(R: −0.02, Q: −0.18, P: −0.31)

---

Target: mouse ADAMTS7 (Mus musculus, UniProt Q68SA9, E373Q)
Construct: Full-length mouse Adamts7 1-1857 (Uniprot Q68SA9, WT or E373Q catalytic mutant); expressed in transfected cells; host or cells: Human Coronary Artery Smooth Muscle Cells (HCA-SMC, Lonza), adenovirus 50 MOI
Sequence (Q68SA9 221-1657 E373Q): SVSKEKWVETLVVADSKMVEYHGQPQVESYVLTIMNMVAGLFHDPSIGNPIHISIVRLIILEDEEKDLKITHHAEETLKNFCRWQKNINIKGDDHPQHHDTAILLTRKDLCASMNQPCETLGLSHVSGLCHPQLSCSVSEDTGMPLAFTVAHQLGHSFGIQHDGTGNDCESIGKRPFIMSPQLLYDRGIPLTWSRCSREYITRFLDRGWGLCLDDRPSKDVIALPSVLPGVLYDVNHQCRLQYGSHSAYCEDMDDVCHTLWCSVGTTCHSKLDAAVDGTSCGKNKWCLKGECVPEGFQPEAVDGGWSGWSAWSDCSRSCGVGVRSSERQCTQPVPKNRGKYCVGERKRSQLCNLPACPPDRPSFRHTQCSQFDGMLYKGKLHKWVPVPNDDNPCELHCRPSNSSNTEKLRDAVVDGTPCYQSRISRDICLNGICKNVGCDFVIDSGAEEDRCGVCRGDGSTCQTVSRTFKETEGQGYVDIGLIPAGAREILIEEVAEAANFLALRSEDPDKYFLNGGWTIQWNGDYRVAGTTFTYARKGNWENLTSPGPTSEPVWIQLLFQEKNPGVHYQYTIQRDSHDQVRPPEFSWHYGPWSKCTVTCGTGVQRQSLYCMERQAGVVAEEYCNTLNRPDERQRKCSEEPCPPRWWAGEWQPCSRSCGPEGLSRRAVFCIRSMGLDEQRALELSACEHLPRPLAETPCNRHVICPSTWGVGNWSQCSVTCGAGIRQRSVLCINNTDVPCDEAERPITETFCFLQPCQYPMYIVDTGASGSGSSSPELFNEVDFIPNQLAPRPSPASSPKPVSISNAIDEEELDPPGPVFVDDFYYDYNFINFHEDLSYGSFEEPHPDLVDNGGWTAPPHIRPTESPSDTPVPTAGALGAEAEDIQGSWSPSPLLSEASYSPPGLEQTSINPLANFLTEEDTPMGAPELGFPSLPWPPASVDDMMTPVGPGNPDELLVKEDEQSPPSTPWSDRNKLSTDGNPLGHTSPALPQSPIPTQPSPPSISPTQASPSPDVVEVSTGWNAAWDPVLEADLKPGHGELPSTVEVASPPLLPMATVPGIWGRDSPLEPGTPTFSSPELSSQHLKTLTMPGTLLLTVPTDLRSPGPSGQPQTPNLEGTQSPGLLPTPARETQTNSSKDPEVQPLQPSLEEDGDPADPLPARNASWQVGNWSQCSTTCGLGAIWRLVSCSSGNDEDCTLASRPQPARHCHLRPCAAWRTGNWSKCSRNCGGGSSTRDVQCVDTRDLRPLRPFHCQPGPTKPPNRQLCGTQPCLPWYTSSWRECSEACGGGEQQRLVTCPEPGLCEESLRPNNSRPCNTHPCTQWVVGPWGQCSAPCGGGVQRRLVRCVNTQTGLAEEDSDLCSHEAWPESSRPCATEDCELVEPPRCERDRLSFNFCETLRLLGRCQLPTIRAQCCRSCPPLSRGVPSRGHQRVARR
Assay: TMT10 TAILS N-terminomics, SMC1 experiment (Ad-mADAMTS7 WT vs EQ vs Luc, technical replicates, trypsin digest)
Assay type: cell-based
Conditions: TAILS neo-N-terminal peptide abundance; log fold change, Ad-mADAMTS7 EQ over Luc
reported_metric: logFC.mEQ.over.Luc

Examples from the recorded data:
substance	subject_of_test	logFC.mEQ.over.Luc
COL1A2_389 (SAGPPGPPGLR; listed as Homo sapiens)	mouse ADAMTS7 (Mus musculus, UniProt Q68SA9, E373Q)	0.39
HSPG2_2688 (VADSGEYVCR; listed as Homo sapiens)	mouse ADAMTS7 (Mus musculus, UniProt Q68SA9, E373Q)	0.14
HLA−C_52 (VDDTQFVR; listed as Homo sapiens)	mouse ADAMTS7 (Mus musculus, UniProt Q68SA9, E373Q)	0.35

(1) EHBP1L1_298 (TAPTPAPR; listed as Homo sapiens)
(2) FN1_281 (SGSGPFTDVR; listed as Homo sapiens)
Returns the identifier with the smallest measured logFC.mEQ.over.Luc among 1 and 2 . Identify your pick by its label. 1
(1: −0.22, 2: 0.56)
